- Test system: SN12C
- assay-method-text: Antiproliferative activity against human SN12C cells assessed as cell growth inhibition at 10 uM incubated for 48 hrs by sulforhodamine B assay relative to control
- Format: functional
measurement-name: inhibition at 10 µM (%)
Provide the reading as a plain figure in %.

Example entries and their recorded answers appear below.
# record-smiles, measurement-name, units-label, readout-number
records = [
    ("Fc1ccccc1-c1cn2ccnc2c(-c2ccc3ncn(C4CCCCC4)c3c2)n1", "inhibition at 10 µM", "%", 10.1),
    ("Fc1ccc(-c2cn3ccnc3c(-c3ccc4ncn(C5CCCCC5)c4c3)n2)cc1", "inhibition at 10 µM", "%", 3.97),
    ("c1ccc2c(-c3cn4ccnc4c(-c4ccc5ncn(C6CCCCC6)c5c4)n3)cccc2c1", "inhibition at 10 µM", "%", 11.7),
]

## Task Please look at this compound and report its inhibition at 10 µM: c1cn2cc(-c3ccc4ncn(C5CCCCC5)c4c3)nc(-c3ccc4ncn(C5CCCCC5)c4c3)c2n1
## Result 42.7

###

Reported inhibition at 10 µM values are given for each entry in this list.
- Tested on: UO-31
- assay-method-text: Antiproliferative activity against human UO-31 cells assessed as cell growth inhibition at 10 uM incubated for 48 hrs by sulforhodamine B assay relative to control
- Format: functional
Value and unit, in that order.

Example entries and their recorded answers appear below.
# record-smiles, measurement-name, result
measured = [
    ("c1ccc(Cn2cnc3ccc(-c4nc(-c5cccc6ccccc56)cn5ccnc45)cc32)cc1", "inhibition at 10 µM", "31.3%"),
    ("COc1ccccc1-c1cn2ccnc2c(-c2ccc3ncn(C4CCCCC4)c3c2)n1", "inhibition at 10 µM", "24%"),
    ("Fc1ccc(-c2cn3ccnc3c(-c3ccc4ncn(C5CCCCC5)c4c3)n2)cc1", "inhibition at 10 µM", "37.8%"),
]

## Task Please look at this compound and report its inhibition at 10 µM: Fc1ccccc1-c1cn2ccnc2c(-c2ccc3ncn(C4CCCCC4)c3c2)n1
## Result 22.9%

## Task Please look at this compound and report its inhibition at 10 µM: c1ccc2c(-c3cn4ccnc4c(-c4ccc5ncn(C6CCCCC6)c5c4)n3)cccc2c1
## Result 23%

## Task Please look at this compound and report its inhibition at 10 µM: c1cn2cc(-c3ccc4ncn(C5CCCCC5)c4c3)nc(-c3ccc4ncn(C5CCCCC5)c4c3)c2n1
## Result 68.8%

## Task Please look at this compound and report its inhibition at 10 µM: c1ccc(-c2cn3ccnc3c(-c3ccc4ncn(C5CCCCC5)c4c3)n2)cc1
## Result 55.1%

## Task Please look at this compound and report its inhibition at 10 µM: FC(F)(F)c1cccc(-c2cn3ccnc3c(-c3ccc4ncn(C5CCCCC5)c4c3)n2)c1
## Result 22.5%

## Task Please look at this compound and report its inhibition at 10 µM: c1cn2cc(-c3ccc4c(c3)ncn4C3CCCCC3)nc(-c3ccc4ncn(C5CCCCC5)c4c3)c2n1
## Result 25.6%

## Task Please look at this compound and report its inhibition at 10 µM: c1ccc(Cn2cnc3ccc(-c4nc(-c5ccc6c(c5)ncn6C5CCCCC5)cn5ccnc45)cc32)cc1
## Result -51.4%

## Task Please look at this compound and report its inhibition at 10 µM: c1csc(-c2cn3ccnc3c(-c3ccc4ncn(C5CCCCC5)c4c3)n2)c1
## Result 10.9%

###

- System: SK-MEL-5
- assay-method-text: Antiproliferative activity against human SK-MEL-5 cells assessed as cell growth inhibition at 10 uM incubated for 48 hrs by sulforhodamine B assay relative to control
- Type: functional
measurement-name: inhibition at 10 µM (%)
Provide the reading as a plain figure in %.

# record-smiles, measured-target, inhibition at 10 µM / %
data = [
    ("Fc1ccc(-c2cn3ccnc3c(-c3ccc4ncn(C5CCCCC5)c4c3)n2)cc1", "SK-MEL-5", 7.36),
    ("Cc1cccc(-c2cn3ccnc3c(-c3ccc4ncn(Cc5ccccc5)c4c3)n2)c1", "SK-MEL-5", 10.1),
    ("c1csc(-c2cn3ccnc3c(-c3ccc4ncn(C5CCCCC5)c4c3)n2)c1", "SK-MEL-5", 8.05),
    ("Clc1ccc(-c2cn3ccnc3c(-c3ccc4ncn(C5CCCCC5)c4c3)n2)cc1", "SK-MEL-5", 12.4),
    ("O=Cc1ccc(-c2cn3ccnc3c(-c3ccc4ncn(C5CCCCC5)c4c3)n2)cc1", "SK-MEL-5", 56.5),
]

## Task Please look at this compound and report its inhibition at 10 µM: CCc1ccc(-c2cn3ccnc3c(-c3ccc4ncn(Cc5ccccc5)c4c3)n2)cc1
## Result 47.9

###

- Tested on: NCI-H322M
- assay-method-text: Antiproliferative activity against human NCI-H322M cells assessed as cell growth inhibition at 10 uM incubated for 48 hrs by sulforhodamine B assay relative to control
- Assay type: functional
measurement-name: inhibition at 10 µM
Value and unit, in that order.

# record-smiles, inhibition at 10 µM
records = [
    ("Fc1ccc(-c2cn3ccnc3c(-c3ccc4ncn(C5CCCCC5)c4c3)n2)cc1", "0.01%"),
]

## Task Please look at this compound and report its inhibition at 10 µM: c1cn2cc(-c3ccc4ncn(C5CCCCC5)c4c3)nc(-c3ccc4ncn(C5CCCCC5)c4c3)c2n1
## Result 39.1%

## Task Please look at this compound and report its inhibition at 10 µM: CC(=O)c1ccc(-c2cn3ccnc3c(-c3ccc4ncn(C5CCCCC5)c4c3)n2)cc1
## Result 1.19%

## Task Please look at this compound and report its inhibition at 10 µM: c1ccc(-c2cn3ccnc3c(-c3ccc4ncn(C5CCCCC5)c4c3)n2)cc1
## Result 5.25%

## Task Please look at this compound and report its inhibition at 10 µM: c1ccc(Cn2cnc3ccc(-c4nc(-c5cccc6ccccc56)cn5ccnc45)cc32)cc1
## Result 1.34%

## Task Please look at this compound and report its inhibition at 10 µM: Brc1ccc(-c2cn3ccnc3c(-c3ccc4ncn(C5CCCCC5)c4c3)n2)cc1
## Result 4.21%

## Task Please look at this compound and report its inhibition at 10 µM: COc1ccc(-c2cn3ccnc3c(-c3ccc4ncn(C5CCCCC5)c4c3)n2)cc1
## Result 31.5%

## Task Please look at this compound and report its inhibition at 10 µM: FC(F)(F)c1cccc(-c2cn3ccnc3c(-c3ccc4ncn(C5CCCCC5)c4c3)n2)c1
## Result 5.83%

## Task Please look at this compound and report its inhibition at 10 µM: Brc1cn2ccnc2c(-c2ccc3ncn(C4CCCCC4)c3c2)n1
## Result 18.1%

###

- Test system: NCI-H460
- assay-method-text: Antiproliferative activity against human NCI-H460 cells assessed as cell growth inhibition at 10 uM incubated for 48 hrs by sulforhodamine B assay relative to control
- Type: functional
Decision: inhibition at 10 µM >= 40% yields Y, all other cases yield N.

Here are 2 compounds together with their reported answers.
# record-smiles, discrete-label
measured = [
    ("O=Cc1ccc(-c2cn3ccnc3c(-c3ccc4ncn(Cc5ccccc5)c4c3)n2)cc1", "N"),
    ("CCc1ccc(-c2cn3ccnc3c(-c3ccc4ncn(Cc5ccccc5)c4c3)n2)cc1", "Y"),
]

## Task Has CC(=O)c1ccc(-c2cn3ccnc3c(-c3ccc4ncn(C5CCCCC5)c4c3)n2)cc1 a recorded inhibition at 10 µM greater than or equal to 40%?
## Result N

## Task Has COc1ccc(-c2cn3ccnc3c(-c3ccc4ncn(C5CCCCC5)c4c3)n2)cc1 a recorded inhibition at 10 µM greater than or equal to 40%?
## Result Y

## Task Has c1cn2cc(-c3ccc4c(c3)ncn4C3CCCCC3)nc(-c3ccc4ncn(C5CCCCC5)c4c3)c2n1 a recorded inhibition at 10 µM greater than or equal to 40%?
## Result N

###

- System: KM12
- assay-method-text: Antiproliferative activity against human KM12 cells assessed as cell growth inhibition at 10 uM incubated for 48 hrs by sulforhodamine B assay relative to control
- Type: functional
Reported inhibition at 10 µM values are given for each entry in this list.
Provide the reading as a plain figure in %.

# record-smiles, inhibition at 10 µM / %
records = [
    ("CCc1ccc(-c2cn3ccnc3c(-c3ccc4ncn(Cc5ccccc5)c4c3)n2)cc1", 45.7),
]

## Task Please look at this molecule and report its inhibition at 10 µM: Fc1ccc(-c2cn3ccnc3c(-c3ccc4ncn(C5CCCCC5)c4c3)n2)cc1
## Result 3.49

## Task Please look at this molecule and report its inhibition at 10 µM: Fc1ccccc1-c1cn2ccnc2c(-c2ccc3ncn(C4CCCCC4)c3c2)n1
## Result 2.45

## Task Please look at this molecule and report its inhibition at 10 µM: Brc1cn2ccnc2c(-c2ccc3ncn(C4CCCCC4)c3c2)n1
## Result 67.7

## Task Please look at this molecule and report its inhibition at 10 µM: Brc1ccc(-c2cn3ccnc3c(-c3ccc4ncn(C5CCCCC5)c4c3)n2)cc1
## Result 23.3

## Task Please look at this molecule and report its inhibition at 10 µM: FC(F)(F)c1cccc(-c2cn3ccnc3c(-c3ccc4ncn(C5CCCCC5)c4c3)n2)c1
## Result 1.25

## Task Please look at this molecule and report its inhibition at 10 µM: Clc1ccc(-c2cn3ccnc3c(-c3ccc4ncn(C5CCCCC5)c4c3)n2)cc1
## Result 10.6

## Task Please look at this molecule and report its inhibition at 10 µM: c1csc(-c2cn3ccnc3c(-c3ccc4ncn(C5CCCCC5)c4c3)n2)c1
## Result 4.89

## Task Please look at this molecule and report its inhibition at 10 µM: CC(=O)c1ccc(-c2cn3ccnc3c(-c3ccc4ncn(C5CCCCC5)c4c3)n2)cc1
## Result 11.7

## Task Please look at this molecule and report its inhibition at 10 µM: c1ccc(Cn2cnc3ccc(-c4nc(-c5cccc6ccccc56)cn5ccnc45)cc32)cc1
## Result 11

## Task Please look at this molecule and report its inhibition at 10 µM: c1ccc2c(-c3cn4ccnc4c(-c4ccc5ncn(C6CCCCC6)c5c4)n3)cccc2c1
## Result 11.1

## Task Please look at this molecule and report its inhibition at 10 µM: COc1ccccc1-c1cn2ccnc2c(-c2ccc3ncn(C4CCCCC4)c3c2)n1
## Result 3.58

## Task Please look at this molecule and report its inhibition at 10 µM: O=Cc1ccc(-c2cn3ccnc3c(-c3ccc4ncn(Cc5ccccc5)c4c3)n2)cc1
## Result 3.69

## Task Please look at this molecule and report its inhibition at 10 µM: c1ccc(-c2cn3ccnc3c(-c3ccc4ncn(C5CCCCC5)c4c3)n2)cc1
## Result 49

Origin of measurements: ChEMBL document CHEMBL5247578
